Tested on: IGROV1 ovarian
Assay: NCI tumour cell line growth inhibition, 48 h
measured.attribute: TGI

Cc1cc(C)c(C(=O)C(C)C(c2ccccc2)c2ccc(Cl)cc2)c(C)c1 (configuration not stated)	> 100 µM
COC(=O)[C@H](CCCCNC(=O)OCc1ccccc1)NC(=O)[C@@H](NC(=O)Nc1cc(C(F)(F)F)cc(C(F)(F)F)c1)C(C)C	> 10 µM
C/C(=C\CC/C=C(\C)CC/C=C(\C)CCC1SC1(C)C)CC/C=C(\C)CCC1OC1(C)C (configuration not stated)	> 100 µM
COC1OC(Cn2cc([N+](=O)[O-])nc2C)C(O)C(O)C1O (configuration not stated)	> 100 µM
Cn1c(N)c(/C=C/C(=O)Oc2ccccc2)c(=O)n(C)c1=O	> 100 µM
O=C(NC(CCCCN1C(=O)c2ccccc2C1=O)P(=O)(Oc1ccccc1)Oc1ccccc1)OCc1ccccc1 (configuration not stated)	> 100 µM

Please give the measured TGI for this compound: C/C(=N/N)c1sc(-c2nc(C)c(/C(C)=N\N)s2)nc1C
> 100 µM

* * *

System: IGROV1 ovarian
Experiment: NCI tumour cell line growth inhibition, 48 h
measured.attribute: TGI

The examples below pair each entry with its known result.
CC(=O)N1N=C(c2ccc3ccccc3c2O)CC1c1ccc(N(C)C)cc1 (stereo unspecified)	> 100 µM
CN(C(=O)c1ccccc1)c1ccc2c(c1)C(=O)c1ccccc1C2=O	> 100 µM
CC(=O)O[C@H]1CC[C@]2(C)C3C(=O)C[C@]4(C)[C@@H](C(C)CCC(=O)O)CC[C@@]4(C)[C@@H]3CC[C@H]2C1(C)C (stereo partly specified)	> 50 µM
Oc1ccc(/C=N/c2nccs2)c(O)c1	> 100 µM
CN1CCN(Cc2ccccc2)CC1CC#N (stereo unspecified)	> 100 µM

Please give the measured TGI for this compound: C=CCC1C(=O)CC2(C)C(CC=C)C(=O)CC12C (stereo unspecified)
> 100 µM

* * *

Documented TGI across a set of compounds
Tested on: HCT-116 colon
Assay: NCI tumour cell line growth inhibition, 48 h

Please give the measured TGI for this compound: CCOC(=O)c1cc2c(n1Cc1ccccc1OC)-c1oncc1CCC2
> 100 µM

Next: CCOC(=O)/C(=C\c1c(C)[nH]c2ccccc12)P(=O)(OCC)OCC
> 100 µM

Next: O=C(O)CCC(NC(=O)c1ccc(CNc2nc3cc(C(F)(F)F)ccc3nc2C(=O)O)cc1)C(=O)O (stereo not drawn)
> 100 µM

* * *

System: UACC-62 melanoma
Assay: NCI tumour cell line growth inhibition, 48 h
measured.attribute: TGI

The examples below pair each entry with its known result.
CCOc1nc2sc3c(c2c(=O)n1CCSSCCn1c(OCC)nc2sc4c(c2c1=O)CCCC4)CCCC3	> 100 µM
COc1cc2c(cc1OC)[C@H]1C(COC(=O)Nc3ccccc3)CN1CC2 (stereo not given in full)	> 100 µM
O=C(O)CCC(NC(=O)c1ccc(Oc2nc3ccccc3nc2-c2ccccc2)cc1)C(=O)O (stereo not given)	> 100 µM
COc1cccc(/C=C/C(=O)N2CC(CCl)c3c2cc(N)c2ccccc32)c1 (stereo not given)	0.0224 µM

Please give the measured TGI for this molecule: COc1nc2c(c(=O)[nH]1)N=C(c1ccc(Cl)cc1)CC(c1ccccc1)N2 (stereo not given)
46.6 µM

Next: O=c1[nH]c(=O)n(C2CC(O)C(COP(=O)(OCC(Cl)(Cl)Cl)OCC(Cl)(Cl)Cl)O2)cc1F (stereo not given)
> 100 µM

Next: C=CCN1C(=O)[C@]2(SC1=S)[C@H](c1cccc(Cl)c1)CN(C)[C@]21C(=O)NC2C=CC(Cl)=C[C@H]21 (stereo not given in full)
19.1 µM

Next: Oc1ccc(/C=N/c2nccs2)c(O)c1
> 100 µM

Next: CCOC(=O)CCn1cnc(N)n1
> 100 µM

Next: N#CCC(=O)Nc1ccccc1O
> 100 µM

Next: CCOC(=O)c1ccc(N(CCOS(=O)(=O)c2ccc(C)cc2)CCOS(=O)(=O)c2ccc(C)cc2)cc1
> 100 µM

Next: CCCCNCCCCCNc1cc(OC)cc2cccnc12
40.3 µM

Next: C[C@H]1S[C@H](c2c(F)cccc2F)n2c1nc1ccccc12
> 100 µM

Next: c1cc2c3ccsc3c3sccc3c2s1
> 100 µM

Next: FC(F)(F)c1nc(Br)[nH]c1C(F)(F)F
> 100 µM

Next: Cc1cc(C)c(C(=O)C(C)C(c2ccccc2)c2ccc(Cl)cc2)c(C)c1 (stereo not given)
> 100 µM

Next: CCOC(=O)c1ccc(NC(=O)c2cccc(NC3=C(Cl)C(=O)N(Cc4ccccc4)C3=O)c2)cc1
> 100 µM

* * *

Tested on: KM12 colon
Test: NCI tumour cell line growth inhibition, 48 h
Documented GI50 across a set of compounds

The examples below pair each entry with its known result.
CCOC(=O)c1cc2c(n1Cc1ccccc1OC)-c1oncc1CCC2	2.1 µM
Cc1cn2c(/C=C3\C(=O)N(C)c4ccc(Cl)cc43)c(C)nc2s1	1.29 µM
COC(=O)[C@H](CCCCNC(=O)OCc1ccccc1)NC(=O)[C@@H](NC(=O)Nc1cc(C(F)(F)F)cc(C(F)(F)F)c1)C(C)C	> 10 µM

Form entry - test system: KM12 colon; read-out: GI50; compound: COc1cc(/C=C/c2ccnc3ccccc23)cc(OC)c1OC
1.34 µM

Next: CC(=N\O)/C(C)=N/O.CC(=N\O)/C(C)=N/O.[Fe].[NH2-].c1c[nH]cn1
> 100 µM

Next: O=C(Nc1ccc(Cl)cc1)N1CCN(c2ccc3nncn3n2)CC1
52.9 µM

Next: O=c1[nH]c2ccccc2n1C1CCN(CCOc2ccccc2)CC1
40.4 µM

Next: CN(C)C/C=C/C(=O)Nc1cc2c(Nc3cccc(Cl)c3F)ncnc2cc1OCCOC(F)F
3.11 µM

Next: COc1ccc(NC(=O)c2cccc(C3CCc4c(cc(OC)c(OC)c4OC)O3)c2)cc1 (stereo unspecified)
3.49 µM

Next: Nc1cc(N)c2nc(-c3ccccc3)c(NCc3ccc(Cl)c(Cl)c3)nc2c1
3.42 µM

Next: COc1ccc2nc3ccccc3c(NCc3ccccc3)c2c1
3.49 µM

* * *

System: MALME-3M melanoma
Assay: NCI tumour cell line growth inhibition, 48 h
Documented TGI across a set of compounds

Cn1c(=O)[nH]c2c(c1=O)C(=O)CN2	> 100 µM
COc1ccc2c(c1)C(=O)c1c-2n(CCCCl)c(=O)c2cc(N)ccc12	> 100 µM
CN(C(=O)c1ccccc1)c1ccc2c(c1)C(=O)c1ccccc1C2=O	> 100 µM
NS(=O)(=O)c1cc(C(=O)O)c(Cl)c([N+](=O)[O-])c1Cl	> 100 µM
CC(O)C1OC(n2ccc(=O)[nH]c2=O)CC1n1cncn1 (stereo not drawn)	> 100 µM
O=C(CCl)Nc1ccc(Cc2ccc(NC(=O)CCl)cc2)cc1	3.17 µM
Oc1ccc(/C=N/c2nccs2)c(O)c1	> 100 µM

Now for the compound whose TGI we want.
Please give the measured TGI for this compound: CCC(=C(c1ccc(OCCN2CCCC2)cc1)c1ccc(OCCN2CCCC2)cc1)c1ccc(Cl)cc1
1.07 µM

* * *

Tested on: SW-620 colon
Experiment: NCI tumour cell line growth inhibition, 48 h
measured.attribute: TGI

The examples below pair each entry with its known result.
C[C@H]1S[C@H](c2c(F)cccc2F)n2c1nc1ccccc12	> 100 µM
C=C1C(O)C2CC(C)(C)C(=O)C2=C(CC(C)C)C12CC2 (stereo not drawn)	> 100 µM
CCOC(=O)c1cc2c(n1Cc1cc(OC)cc(OC)c1)-c1oncc1CC2	> 100 µM
CC[Si](CC)(CC)OC1[C@@H](O[Si](CC)(CC)CC)[C@@H](CNC(=O)NC)O[C@H]1n1cnc2c(NC(=O)Nc3ccccc3)ncnc21 (stereo partly drawn)	> 100 µM
CCOC(=O)c1cc2c(n1Cc1ccccc1OC)-c1oncc1CCC2	> 100 µM

Please give the measured TGI for this compound: CNC(=O)NCCN1N=C(C)/C(=C\c2ccccc2)CC1=O
> 100 µM

Next: CCC(=C(c1ccc(OCCN2CCCC2)cc1)c1ccc(OCCN2CCCC2)cc1)c1ccc(Cl)cc1
1.09 µM

Next: O=C(OCc1ccccc1)n1cccc1
> 100 µM

Next: COC(=O)/C(C#N)=C/c1cc(C(C)(C)C)c(O)c(C(C)(C)C)c1
14.5 µM

Next: O=C1c2c(O)cccc2Cc2cc(CO)cc(O)c21
> 100 µM

Next: CCc1cccc(NC(=O)c2cc(/C=C/c3ccccc3)[nH]c(=S)n2)c1
> 100 µM

Next: NCCCNc1nc2ccccc2c2c(=O)c3cc(F)cc(Cl)c3sc12
3.28 µM

Next: CCC(=O)CCC1=Nc2nnc(CCCCc3nnc4n3C(=O)C(CCC(=O)CC)=N4)n2C1=O
> 100 µM
